Species: Rattus norvegicus
Experiment: Open TG-GATES - Regimen: Daily Repeat
Type: toxicity, organism-based, Sprague-Dawley
Set-up: regimen Daily Repeat, gender Male, age 6 weeks
Conditions: in vivo, po, 0 mg/kg, 72 h, tissue Blood, route gavage, dose level Control, time 3 day
The following compounds are shown together with reported MCHC values.
Give the number; % is assumed, so skip it.

Below, each entry is followed by its recorded MCHC result.
compound | MCHC [%]
CC(C)C(=O)Nc1ccc([N+](=O)[O-])c(C(F)(F)F)c1 [FLUTAMIDE] | 33.3
Nc1nc(N)c2nc(-c3ccccc3)c(N)nc2n1 | 33.9
CC(=O)Oc1cc(C(C)C)c(OCCN(C)C)cc1C | 34.9
O=C(N[C@H](CO)[C@H](O)c1ccc([N+](=O)[O-])cc1)C(Cl)Cl | 32.4
Oc1ncnc2[nH]ncc12 | 33.3

Exercise: What value of measured MCHC is listed for CCc1oc2ccccc2c1C(=O)c1cc(I)c(O)c(I)c1 ?
Solution: 33.7

---

Species: Rattus norvegicus
Test: Open TG-GATES - Regimen: Single
Type: toxicity, organism-based, Sprague-Dawley
Parameters: regimen Single, gender Male, age 6 weeks
Settings: in vivo, po, 0 mg/kg, 24 h, tissue Blood, route gavage, dose level Control
Recorded Lym, one value per entry.
Param answer (str): number followed by unit.

Past entries and their recorded results:
compound | Lym
CC(=O)Oc1cc(C(C)C)c(OCCN(C)C)cc1C | 79.2%
C[C@]12CCC(=O)C=C1CC[C@@H]1[C@@H]2CC[C@@]2(C)[C@H]1CC[C@]2(C)O | 76%
CCC(C)(C)C(=O)O[C@H]1C[C@@H](C)C=C2C=C[C@H](C)[C@H](CC[C@@H]3C[C@@H](O)CC(=O)O3)[C@H]21 | 82.8%
C#C[C@]1(O)CC[C@H]2[C@@H]3CCc4cc(O)ccc4[C@H]3CC[C@@]21C | 76.2%
CC(C)(S)[C@@H](N)C(=O)O | 76.8%

Exercise: May I ask what Lym has been recorded for O=C(O)c1cccnc1 ?
Solution: 81.2%

Exercise: Request the reported Lym associated with CC(=N)S [THIOACETAMIDE]
Solution: 80.8%

Exercise: Quick one: Lym of CN1C(=O)OC(C)(C)C1=O ?
Solution: 77.2%

---

Species on record: Rattus norvegicus
Assay: Open TG-GATES - Regimen: Daily Repeat
Format: toxicity, organism-based, Sprague-Dawley
Design: regimen Daily Repeat, gender Male, age 6 weeks
Conditions: in vivo, po, 0 mg/kg, […], tissue Kidney, route gavage, dose level Control, time 28 day
Property: KIDNEY_L; scope: individual compounds
Please reply with the bare figure in g and do not write the unit itself.

compound | measurement.units | KIDNEY_L
CCN1CCCC1CNC(=O)c1cc(S(N)(=O)=O)ccc1OC (stereo not drawn) [SULPIRIDE] | g | 1.2

Exercise: Give its KIDNEY_L value. Item: C[C@]12CCC(=O)C=C1CC[C@@H]1[C@@H]2CC[C@@]2(C)[C@H]1CC[C@]2(C)O
Solution: 1.4

Exercise: Could you tell me which KIDNEY_L is on file for C#C[C@]1(O)CC[C@H]2[C@@H]3CCc4cc(O)ccc4[C@H]3CC[C@@]21C ?
Solution: 1.4

Exercise: Would you mind telling me what KIDNEY_L value was observed for CC(C)(S)[C@@H](N)C(=O)O ?
Solution: 1.4

Exercise: Please report the recorded KIDNEY_L for CCC(C)(C)C(=O)O[C@H]1C[C@@H](C)C=C2C=C[C@H](C)[C@H](CC[C@@H]3C[C@@H](O)CC(=O)O3)[C@H]21 .
Solution: 1.4

Exercise: Entry under review: CCc1oc2ccccc2c1C(=O)c1cc(I)c(O)c(I)c1 . Reported KIDNEY_L?
Solution: 1.4

Exercise: Requested read-out: KIDNEY_L. Entry: Nc1nc(N)c2nc(-c3ccccc3)c(N)nc2n1
Solution: 1.5

Exercise: Entry O=C(N[C@H](CO)[C@H](O)c1ccc([N+](=O)[O-])cc1)C(Cl)Cl : reported KIDNEY_L = ?
Solution: 1.4

---

Reported Cl values are given for each entry in this list.
Species: Rattus norvegicus
Assay: Open TG-GATES - Regimen: Daily Repeat
Type: toxicity, organism-based, Sprague-Dawley
Parameters: regimen Daily Repeat, gender Male, age 6 weeks
Details: in vivo, po, 300 mg/kg, […], tissue Plasma, route gavage, dose level Middle, time 7 day
Note: unit meq/L is implicit; provide only the numeric part.

Exercise: Which measured Cl value corresponds to CCN1CCCC1CNC(=O)c1cc(S(N)(=O)=O)ccc1OC (centres undefined) [SULPIRIDE] ?
Solution: 104.2

Exercise: Need Cl, item O=C(N[C@H](CO)[C@H](O)c1ccc([N+](=O)[O-])cc1)C(Cl)Cl
Solution: 106

Exercise: Requested field: Cl. Item: CC(C)(S)[C@@H](N)C(=O)O
Solution: 103.8

Exercise: Any idea what its Cl is? The compound is O=C(O)c1cccnc1
Solution: 105

---

// reported GLC per item
Species on record: Rattus norvegicus
Assay: Open TG-GATES - Regimen: Daily Repeat
Format: toxicity, organism-based, Sprague-Dawley
Parameters: regimen Daily Repeat, gender Male, age 6 weeks
Details: in vivo, po, 1000 mg/kg, […], tissue Plasma, route gavage, dose level High, time 14 day
Please state the figure in mg/dL; there is no need to write the unit.

Consider the following illustrative entries.
compound | GLC / mg/dL
CC(C)(S)[C@@H](N)C(=O)O [PENICILLAMINE] | 174.6
O=C(O)c1cccnc1 [NIACIN] | 195.6
O=C(N[C@H](CO)[C@H](O)c1ccc([N+](=O)[O-])cc1)C(Cl)Cl [CHLORAMPHENICOL] | 179.2

Now take the following compound into account.
Exercise: Return reported GLC; argument: CCN1CCCC1CNC(=O)c1cc(S(N)(=O)=O)ccc1OC (centres undefined) [SULPIRIDE]
Solution: 181

---

Organism: Rattus norvegicus
Assay: Open TG-GATES - Regimen: Daily Repeat
Type: toxicity, organism-based, Sprague-Dawley
Set-up: regimen Daily Repeat, gender Male, age 6 weeks
Conditions: in vivo, po, 0 mg/kg, […], tissue Kidney, route gavage, dose level Control, time 28 day
property.label: KIDNEY_TOTAL (g)
Give the quantity in g, number only.

Completed entries (count: 4):
molecule | measurement.units | KIDNEY_TOTAL
CCc1oc2ccccc2c1C(=O)c1cc(I)c(O)c(I)c1 [BENZIODARONE] | g | 2.9
CC(C)(S)[C@@H](N)C(=O)O [PENICILLAMINE] | g | 2.8
CN1C(=O)OC(C)(C)C1=O [TRIMETHADIONE] | g | 2.9
CCSCC[C@H](N)C(=O)O [ETHIONINE] | g | 2.9

Exercise: Query (molecule): CC(=O)Oc1cc(C(C)C)c(OCCN(C)C)cc1C [MOXISYLYTE] ; field requested: KIDNEY_TOTAL
Solution: 3

Exercise: Given O=C(N[C@H](CO)[C@H](O)c1ccc([N+](=O)[O-])cc1)C(Cl)Cl [CHLORAMPHENICOL] , state its recorded KIDNEY_TOTAL.
Solution: 2.8

Exercise: What measured KIDNEY_TOTAL goes with CC(=N)S [THIOACETAMIDE] ?
Solution: 2.7

Exercise: Endpoint output: KIDNEY_TOTAL of C[C@](N)(Cc1ccc(O)c(O)c1)C(=O)O [METHYLDOPA] . Value?
Solution: 2.5

Exercise: Using the record for C#C[C@]1(O)CC[C@H]2[C@@H]3CCc4cc(O)ccc4[C@H]3CC[C@@]21C [ETHINYL ESTRADIOL] , report its KIDNEY_TOTAL.
Solution: 2.8

Exercise: Please give the measured KIDNEY_TOTAL for this molecule: CCC(C)(C)C(=O)O[C@H]1C[C@@H](C)C=C2C=C[C@H](C)[C@H](CC[C@@H]3C[C@@H](O)CC(=O)O3)[C@H]21 [SIMVASTATIN]
Solution: 2.8

---

Organism: Rattus norvegicus
Test: Open TG-GATES - Regimen: Single
Type: toxicity, organism-based, Sprague-Dawley
Parameters: regimen Single, gender Male, age 6 weeks
Settings: in vivo, po, 0 mg/kg, 6 h, tissue Plasma, route gavage, dose level Control
property.label: K
Record the result as a number with its unit.

compound | property.label | reported.value
CC(C)C(=O)Nc1ccc([N+](=O)[O-])c(C(F)(F)F)c1 [FLUTAMIDE] | K | 4.2 meq/L
C[C@](N)(Cc1ccc(O)c(O)c1)C(=O)O [METHYLDOPA] | K | 4.6 meq/L
O=C(N[C@H](CO)[C@H](O)c1ccc([N+](=O)[O-])cc1)C(Cl)Cl [CHLORAMPHENICOL] | K | 4.2 meq/L
CN1C(=O)OC(C)(C)C1=O [TRIMETHADIONE] | K | 4.2 meq/L
CCc1oc2ccccc2c1C(=O)c1cc(I)c(O)c(I)c1 [BENZIODARONE] | K | 4.6 meq/L
CCSCC[C@H](N)C(=O)O [ETHIONINE] | K | 3.7 meq/L
Nc1nc(N)c2nc(-c3ccccc3)c(N)nc2n1 | K | 4.2 meq/L
CCC(C)(C)C(=O)O[C@H]1C[C@@H](C)C=C2C=C[C@H](C)[C@H](CC[C@@H]3C[C@@H](O)CC(=O)O3)[C@H]21 [SIMVASTATIN] | K | 4.5 meq/L
C[C@]12CCC(=O)C=C1CC[C@@H]1[C@@H]2CC[C@@]2(C)[C@H]1CC[C@]2(C)O [METHYLTESTOSTERONE] | K | 4.1 meq/L
CC(=O)Oc1cc(C(C)C)c(OCCN(C)C)cc1C [MOXISYLYTE] | K | 4.4 meq/L

Exercise: I am curious: what K value has been reported for CCN1CCCC1CNC(=O)c1cc(S(N)(=O)=O)ccc1OC (stereo unspecified) [SULPIRIDE] ?
Solution: 4.3 meq/L

Exercise: GET /values?readout=K&item= CC(=N)S [THIOACETAMIDE]
Solution: 5.1 meq/L

Exercise: I have this compound here, C#C[C@]1(O)CC[C@H]2[C@@H]3CCc4cc(O)ccc4[C@H]3CC[C@@]21C [ETHINYL ESTRADIOL] , and I need its recorded K.
Solution: 4 meq/L

Exercise: Item under review: O=C(O)c1cccnc1 [NIACIN] . Reported K?
Solution: 4.3 meq/L

Exercise: // returns reported K for input CC(C)(S)[C@@H](N)C(=O)O [PENICILLAMINE]
Solution: 4.3 meq/L

Exercise: Field request: K | item: Oc1ncnc2[nH]ncc12 [ALLOPURINOL]
Solution: 5 meq/L
